Reference source for all entries: patent US20220402980A1

Some binders, each annotated with its measured Ki.
systemTested: T1, recombinant human αvβ6 extracellular domain (R&D Systems) (human, UniProt P06756 31-992; P18564 22-709)
T1 chain 1: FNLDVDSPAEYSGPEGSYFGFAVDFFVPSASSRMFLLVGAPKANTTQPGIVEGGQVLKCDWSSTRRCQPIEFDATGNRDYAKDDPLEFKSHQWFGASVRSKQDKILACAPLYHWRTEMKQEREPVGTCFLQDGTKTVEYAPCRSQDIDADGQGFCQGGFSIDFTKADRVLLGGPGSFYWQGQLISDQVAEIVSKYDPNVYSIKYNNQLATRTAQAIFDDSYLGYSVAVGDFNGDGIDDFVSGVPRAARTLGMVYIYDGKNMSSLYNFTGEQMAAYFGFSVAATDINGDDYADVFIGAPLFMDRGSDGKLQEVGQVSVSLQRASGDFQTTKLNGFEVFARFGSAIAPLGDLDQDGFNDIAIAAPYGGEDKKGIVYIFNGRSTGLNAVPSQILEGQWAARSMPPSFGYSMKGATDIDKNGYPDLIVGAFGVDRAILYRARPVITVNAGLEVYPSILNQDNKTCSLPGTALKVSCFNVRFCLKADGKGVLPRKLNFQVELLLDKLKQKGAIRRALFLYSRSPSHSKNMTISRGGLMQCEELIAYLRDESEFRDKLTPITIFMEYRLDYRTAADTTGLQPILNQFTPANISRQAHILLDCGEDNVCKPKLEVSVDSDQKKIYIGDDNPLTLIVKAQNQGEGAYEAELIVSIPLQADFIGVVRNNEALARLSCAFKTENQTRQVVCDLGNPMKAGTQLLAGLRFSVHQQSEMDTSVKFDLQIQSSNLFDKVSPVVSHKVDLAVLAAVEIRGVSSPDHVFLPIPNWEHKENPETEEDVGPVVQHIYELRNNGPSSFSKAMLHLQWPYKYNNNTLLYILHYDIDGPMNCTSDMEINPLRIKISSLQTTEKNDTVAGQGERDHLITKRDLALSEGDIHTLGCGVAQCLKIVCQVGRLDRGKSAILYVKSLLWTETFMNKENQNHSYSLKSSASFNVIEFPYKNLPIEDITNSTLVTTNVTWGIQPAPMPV
T1 chain 2: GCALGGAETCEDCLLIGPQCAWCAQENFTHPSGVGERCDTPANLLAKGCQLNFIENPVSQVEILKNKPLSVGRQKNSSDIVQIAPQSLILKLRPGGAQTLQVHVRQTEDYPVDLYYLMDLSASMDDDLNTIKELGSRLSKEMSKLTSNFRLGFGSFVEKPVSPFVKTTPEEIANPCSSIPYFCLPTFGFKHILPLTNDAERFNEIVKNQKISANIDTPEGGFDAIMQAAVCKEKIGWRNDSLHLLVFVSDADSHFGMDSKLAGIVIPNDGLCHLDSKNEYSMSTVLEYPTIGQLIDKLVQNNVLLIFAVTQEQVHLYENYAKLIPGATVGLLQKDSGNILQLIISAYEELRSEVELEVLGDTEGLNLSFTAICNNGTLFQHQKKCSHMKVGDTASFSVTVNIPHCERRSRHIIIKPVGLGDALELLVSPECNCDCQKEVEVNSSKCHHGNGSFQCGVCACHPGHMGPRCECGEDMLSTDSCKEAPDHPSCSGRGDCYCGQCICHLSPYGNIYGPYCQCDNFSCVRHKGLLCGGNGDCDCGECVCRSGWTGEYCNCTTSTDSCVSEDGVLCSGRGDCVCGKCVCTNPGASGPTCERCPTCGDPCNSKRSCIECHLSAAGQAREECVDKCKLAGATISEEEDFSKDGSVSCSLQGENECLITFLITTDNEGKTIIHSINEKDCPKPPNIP
Bridges are numbered along the chain shown (N, C = ends). [ ]: non-standard residue; d: D form. Lys(N3) = [N-]=[N+]=NCCCC[C@H](N)C(=O)O; Pra = C#CC[C@H](N)C(=O)O

CFETLRGEERILSILRHQNLLKELQD [peptide 2a]    > 100 nM

Request: What measured Ki goes with Ac-FETLRGDLRILSILR[Pra]QNL[Lys(N3)]KELQD-NH2 (triazole 16-20) [peptide 5 (triazole-stapled CgA39-63-derived peptide)] ?
Result: 0.84 nM
